Molecular target: T1, human IL-12 (human, UniProt P29460 23-328; P29459 23-219)
T1 construct: Recombinant (Peprotech); FLAG-tagged IL-12 in the flow cytometry assays, biotinylated in the IL-12Rβ2 assay; also called hIL-12
T1 sequence 1: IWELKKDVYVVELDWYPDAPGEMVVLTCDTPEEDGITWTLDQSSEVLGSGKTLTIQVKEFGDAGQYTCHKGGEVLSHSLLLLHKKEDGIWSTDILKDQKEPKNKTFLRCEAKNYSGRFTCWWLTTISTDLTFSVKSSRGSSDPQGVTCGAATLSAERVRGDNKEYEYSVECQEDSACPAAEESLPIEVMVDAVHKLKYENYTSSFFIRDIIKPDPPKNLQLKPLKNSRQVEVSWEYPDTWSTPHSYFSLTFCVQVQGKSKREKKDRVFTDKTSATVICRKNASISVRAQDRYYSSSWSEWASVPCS
T1 sequence 2: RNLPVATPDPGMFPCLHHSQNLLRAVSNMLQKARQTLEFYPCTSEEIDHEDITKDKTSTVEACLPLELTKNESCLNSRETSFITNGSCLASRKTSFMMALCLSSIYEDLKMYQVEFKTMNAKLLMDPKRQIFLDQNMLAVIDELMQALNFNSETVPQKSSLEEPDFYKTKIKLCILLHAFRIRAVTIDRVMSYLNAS
Assay: SPR, purified scFv captured via FLAG
experimental_readout: Kd (nM)
Give just the numeric value; nM need not be written.

Examples from the recorded data:
{"columns": ["binder", "value"],
 "data": [
  ["scFv AX-G4 (scFv, scFv-80 variant: VL S26P; not shown: proprietary C-terminal FLAG tag) scFv: QVQLVQSGAEVKKPGASVKVSCKASGYTFTDYYLHWVRQAPGQGLEWMGWIDPENGDTEYAPKFQGRVTMTTDTSTSTAYMELRSLRSDDTAVYYCNANKELRYFDVWGQGTMVTVSSGGGGSGGGGSGGGGSEIVMTQSPATLSVSPGERATLSCRAPQSISINLHWYQQKPGQAPRLLIYFASQSISGIPARFSGSGSGTEFTLTISSLQSEDFAVYYCQQSNSFPLTFGGGTKVEIKR", 0.14],
  ["scFv CU-A6 (scFv, scFv-80 variant: VH F29L, T107A; VL S63F; not shown: proprietary C-terminal FLAG tag) scFv: QVQLVQSGAEVKKPGASVKVSCKASGYTLTDYYLHWVRQAPGQGLEWMGWIDPENGDTEYAPKFQGRVTMTTDTSTSTAYMELRSLRSDDTAVYYCNANKELRYFDVWGQGAMVTVSSGGGGSGGGGSGGGGSEIVMTQSPATLSVSPGERATLSCRASQSISINLHWYQQKPGQAPRLLIYFASQSISGIPARFFGSGSGTEFTLTISSLQSEDFAVYYCQQSNSFPLTFGGGTKVEIKR", 0.048]
]}

Here's the next entry for you.
Please give the measured Kd for this binder: scFv AW-F2 (scFv, scFv-80 variant: VH Y59S; not shown: proprietary C-terminal FLAG tag) scFv: QVQLVQSGAEVKKPGASVKVSCKASGYTFTDYYLHWVRQAPGQGLEWMGWIDPENGDTESAPKFQGRVTMTTDTSTSTAYMELRSLRSDDTAVYYCNANKELRYFDVWGQGTMVTVSSGGGGSGGGGSGGGGSEIVMTQSPATLSVSPGERATLSCRASQSISINLHWYQQKPGQAPRLLIYFASQSISGIPARFSGSGSGTEFTLTISSLQSEDFAVYYCQQSNSFPLTFGGGTKVEIKR
0.046
